Kindly state difference in startle response for each of the entries shown.
test system: Danio rerio larvae (5 dpf); assay: difference in startle response vs DMSO (percentage points); higher = stronger startle than DMSO; details: 10 µM; exposure time 6 h
Where a name gives a salt, the structure may show the parent alone.

Consider the following illustrative entries.
{"columns": ["Compound", "Val"],
 "data": [
  ["NC(=O)c1ncn([C@@H]2O[C@H](CO)[C@@H](O)[C@H]2O)n1", -0.473],
  ["CO[C@H]1C[C@@H]2CC[C@@H](C)[C@@](O)(O2)C(=O)C(=O)N2CCCC[C@H]2C(=O)O[C@H]([C@H](C)C[C@@H]2CC[C@@H](OC(=O)C(C)(CO)CO)[C@H](OC)C2)CC(=O)[C@H](C)/C=C(\\C)[C@@H](O)[C@@H](OC)C(=O)[C@H](C)C[C@H](C)/C=C/C=C/C=C/1C", -6.86],
  ["CN1CC(=O)N2[C@H](c3ccc4c(c3)OCO4)c3[nH]c4ccccc4c3C[C@@H]2C1=O", 1.33],
  ["CN(Cc1ccc(C(C)(C)C)cc1)Cc1cccc2ccccc12 [Butenafine (hydrochloride)]", 2.01],
  ["CON(C)Cc1ccc(O)c2c1C[C@H]1C[C@H]3[C@H](N(C)C)C(=O)C(C(N)=O)=C(O)[C@@]3(O)C(=O)C1=C2O", -2.07]
]}

Look at each compound and report its difference in startle response.
1. COc1ccc(OC)c(C(O)CNC(=O)CN)c1 (centres undefined) [Midodrine (hydrochloride)]
2. CCCCC[C@H](O)CC[C@@H]1[C@H]2Cc3cccc(OCC(=O)O)c3C[C@H]2C[C@H]1O
3. CCN(CC)CC#CCOC(=O)C(O)(c1ccccc1)C1CCCCC1 (centres undefined) [Oxybutynin (hydrochloride)]
4. NCC[C@H](O)C(=O)N[C@@H]1C[C@H](N)[C@@H](O[C@H]2O[C@H](CN)[C@@H](O)[C@H](O)[C@H]2O)[C@H](O)[C@H]1O[C@H]1O[C@H](CO)[C@@H](O)[C@H](N)[C@H]1O

-5.94
-1.85
8.08
3.94

====

tested on: Danio rerio larvae (5 dpf); assay: difference in activity during first hour vs DMSO (percentage points); higher = more activity than DMSO; conditions: 10 µM; exposure time 6 h
Counter-ions that a name gives are not always drawn.
Kindly state difference in activity during first hour for each of the entries shown.
Numbers only.

{"columns": ["Compound", "difference in activity during first hour"],
 "data": [
  ["N=C(N)NCCC[C@@H](NC(=O)[C@@H]1CCCN1C(=O)[C@@H]1CSSCCC(=O)N[C@@H](Cc2ccc(O)cc2)C(=O)N[C@@H](Cc2ccccc2)C(=O)N[C@@H](CCC(N)=O)C(=O)N[C@@H](CC(N)=O)C(=O)N1)C(=O)NCC(N)=O [Desmopressin (trifluoroacetate salt)]", 28.8],
  ["Nc1nc(=O)c2nc(CNc3ccc(C(=O)N[C@@H](CCC(=O)O)C(=O)O)cc3)cnc2[nH]1 [Folic Acid]", 15.5],
  ["Cn1cnc([N+](=O)[O-])c1Sc1ncnc2[nH]cnc12 [Azathioprine]", -3.18],
  ["CC1=C(/C=C/C(C)=C/C=C/C(C)=C/C(=O)O)C(C)(C)CCC1 [all-trans Retinoic Acid]", -4.15],
  ["Cc1cnc(C(=O)NCCc2ccc(S(=O)(=O)NC(=O)NC3CCCCC3)cc2)cn1 [Glipizide]", -9.11],
  ["CC(=O)OC(C)C[N+](C)(C)C (stereo not drawn) [Acetyl-β-methylcholine (chloride)]", 3.93]
]}

Look at each compound and report its difference in activity during first hour.
1. Cc1cc2c(s1)Nc1ccccc1N=C2N1CCN(C)CC1 [Olanzapine]
2. Clc1ccc(C(c2ccccc2Cl)C(Cl)Cl)cc1 (stereo not drawn) [Mitotane]
3. CCCNC(C)C(=O)Nc1c(C)csc1C(=O)OC (stereo not drawn) [Articaine (hydrochloride)]
4. OCCN1CCN(CCCN2c3ccccc3Sc3ccc(Cl)cc32)CC1 [Perphenazine]
5. C#C[C@]1(O)CC[C@H]2[C@@H]3CCc4cc(O)ccc4[C@H]3CC[C@@]21C [Ethynyl Estradiol]
6. OC[C@H]1NC[C@H](O)[C@@H](O)[C@H]1O [1-Deoxygalactonojirimycin (hydrochloride)]
7. CNC(=O)c1cc(Oc2ccc(NC(=O)Nc3ccc(Cl)c(C(F)(F)F)c3)c(F)c2)ccn1 [Regorafenib]

1. 8.52
2. 60.8
3. 5.22
4. 24
5. -24
6. 16.8
7. -3.38

====

test system: Danio rerio larvae (5 dpf); experiment: difference in combined optomotor response to red, green and blue moving lines vs DMSO (percentage points); higher = stronger optomotor response than DMSO; conditions: 10 µM; exposure time 6 h
Counter-ions that a name gives are not always drawn.
Measured attribute: difference
Answers are plain numbers.

{"columns": ["Molecule", "difference"],
 "data": [
  ["Clc1cccc(Cl)c1NC1=NCCN1 [Clonidine (hydrochloride)]", 6.82],
  ["Cc1ccsc1C(=CCCN1CCC[C@@H](C(=O)O)C1)c1sccc1C [Tiagabine (hydrochloride)]", -1.64],
  ["COC[C@H]1C[C@@H](c2nc(-c3ccc4c(c3)COc3cc5c(ccc6nc([C@@H]7CC[C@H](C)N7C(=O)[C@@H](NC(=O)OC)C(C)C)[nH]c65)cc3-4)c[nH]2)N(C(=O)[C@H](NC(=O)OC)c2ccccc2)C1", 0.589]
]}

Look at each molecule and report its difference.
1. CNS(=O)(=O)Cc1ccc2[nH]cc(CCN(C)C)c2c1 [Sumatriptan (succinate)]
2. CCc1cc2c(cc1N1CCC(N3CCOCC3)CC1)C(C)(C)c1[nH]c3cc(C#N)ccc3c1C2=O

-4.54
0.182

The value of difference measured for the molecule O=C(O)COCCN1CCN(C(c2ccccc2)c2ccc(Cl)cc2)CC1 (stereo unspecified) [Cetirizine (hydrochloride)] turned out to be 6.72

====

test system: Danio rerio larvae (5 dpf); experiment: difference in activity during first hour vs DMSO (percentage points); higher = more activity than DMSO; settings: 10 µM; exposure time 6 h
Structures can show the parent of a compound that is named as a salt.
Decision: difference in activity during first hour >= -3 yields 1 (yes), all other cases yield 0 (no).

Worked examples, 5 compounds total:
{"columns": ["Compound", "System tested", "Group label"],
 "data": [
  ["Nc1nnc(-c2cccc(Cl)c2Cl)c(N)n1", "Danio rerio larvae (5 dpf)", "0 (no)"],
  ["CN(C)CCCN1c2ccccc2CCc2ccccc21 [Imipramine (hydrochloride)]", "Danio rerio larvae (5 dpf)", "0 (no)"],
  ["NC(=O)N1c2ccccc2C=Cc2ccccc21 [Carbamazepine]", "Danio rerio larvae (5 dpf)", "1 (yes)"],
  ["O=P(O)(O)C(O)(Cn1ccnc1)P(=O)(O)O [Zoledronic Acid (hydrate)]", "Danio rerio larvae (5 dpf)", "1 (yes)"],
  ["C[C@H](Nc1ncnc2nc[nH]c12)c1cc2cccc(Cl)c2c(=O)n1-c1ccccc1", "Danio rerio larvae (5 dpf)", "1 (yes)"]
]}

As a next step, examine the compound that follows.
Hello, I need to know if COc1ccccc1OCC(O)CO (stereo unspecified) has measured difference in activity during first hour not below -3. Thanks!
1 (yes)

====

Kindly state difference in excitability for each of the entries shown.
system: Danio rerio larvae (5 dpf); assay: difference in excitability vs DMSO (percentage points); higher = more excitable than DMSO; details: 10 µM; exposure time 6 h
Counter-ions that a name gives are not always drawn.
Numbers only.

Consider the following illustrative entries.
{"columns": ["Molecule", "difference in excitability"],
 "data": [
  ["C[C@@H](O)[C@@H]1NC(=O)[C@H](CCCCN)NC(=O)[C@@H](Cc2c[nH]c3ccccc23)NC(=O)[C@H](Cc2ccccc2)NC(=O)[C@@H](NC(=O)[C@H](N)Cc2ccccc2)CSSC[C@@H](C(=O)N[C@H](CO)[C@@H](C)O)NC1=O [Octreotide (acetate)]", 11.3],
  ["Cc1cn(-c2cc(NC(=O)c3ccc(C)c(Nc4nccc(-c5cccnc5)n4)c3)cc(C(F)(F)F)c2)cn1 [Nilotinib]", 28.8],
  ["C#C[C@]1(O)CC[C@H]2[C@@H]3CCC4=Cc5oncc5C[C@]4(C)[C@H]3CC[C@@]21C [Danazol]", 6.6],
  ["Nc1ccn([C@@H]2O[C@H](CO)[C@@H](O)C2(F)F)c(=O)n1 [Gemcitabine]", -0.256],
  ["CCOC(=O)C1=C(C)NC(C)=C(C(=O)OC)C1c1cccc(Cl)c1Cl (racemic) [(±)-Felodipine]", 0.706]
]}

Look at each molecule and report its difference in excitability.
1. CO[C@H]1/C=C/O[C@@]2(C)Oc3c(C)c(O)c4c(O)c(c5c(nc6cc(C)ccn65)c4c3C2=O)NC(=O)/C(C)=C\C=C\[C@H](C)[C@H](O)[C@@H](C)[C@@H](O)[C@@H](C)[C@H](OC(C)=O)[C@@H]1C [Rifaximin]
2. c1cc(CN2CCCNCCNCCCNCC2)ccc1CN1CCCNCCNCCCNCC1 [Plerixafor (hydrochloride hydrate)]

-5.63
11.6

Origin of measurements: the supplement of paper PMC10515830
